- assay system: human NK3 receptor (Homo sapiens (Human))
- assay summary: [3H]SR142801 competition binding assay
The following compounds are listed with their measured pKi values.
pKi here: minus log base 10 of the concentration, concentration in moles per litre.

compound: CC(=O)c1ccc(N2CCC(C(=O)N3C[C@@H](N(C)C(=O)Oc4ccc(F)cc4)[C@](C)(c4ccc(Cl)cc4)C3)CC2)nc1 (racemic)
pKi: 8.09

### Prompt // pKi lookup, key: CN(C(=O)Oc1ccc(F)cc1)[C@@H]1CN(C(=O)C2CCN(c3ccc(C#N)cc3)CC2)C[C@@]1(C)c1ccc(Cl)cc1 (racemic)
### Response 7.98

### Prompt What do you get for CN(C(=O)Oc1ccc(F)cc1)[C@@H]1CN(C(=O)C2CCN(C3CCCCC3)CC2)C[C@@]1(C)c1ccc(Cl)cc1 ?
### Response 7.04

### Prompt What do you get for CN(C(=O)Oc1ccc(F)cc1)[C@@H]1CN(C(=O)C2CCN(c3ccc(F)cn3)CC2)C[C@@]1(C)c1ccc(Cl)cc1 (racemic) ?
### Response 7.36

###

- assay system: UniProt P29371
- assay summary: [3H]SR142801 competition binding assay
- condition set: membranes from HEK293 cells transiently expressing recombinant human NK3 receptor; [3H]SR142801; Ki from IC50 by Cheng-Prussoff; read-out: Ki (uM) hNK3
measured property: Ki
Show the value, then the unit it is measured in.

Examples with answers:
compound: CN(C(=O)Oc1ccc(F)cc1)[C@@H]1CN(C(=O)C2CCOCC2)C[C@@]1(C)c1ccc(Cl)cc1 (racemic)
reported: 0.348 µM
--
compound: CN(C(=O)Oc1ccc(F)cc1)[C@@H]1CN(C(=O)C2CCN(c3ccc(Cl)cn3)CC2)C[C@@]1(C)c1ccc(Cl)cc1 (racemic)
reported: 0.0099 µM
--
compound: CN(C(=O)Oc1ccc(F)cc1)[C@@H]1CN(C(=O)C2CCN(c3ccc(C#N)cn3)CC2)C[C@@]1(C)c1ccc(Cl)cc1 (racemic)
reported: 0.0053 µM
--
compound: CC(C)C(=O)N1CCC(C(=O)N2C[C@H](c3ccc(Cl)cc3)[C@@](C)(N(C)C(=O)Oc3ccc(F)cc3)C2)CC1 (racemic)
reported: 0.0105 µM
--
compound: CN(C(=O)Oc1ccc(F)cc1)[C@@]1(C)CN(C(=O)c2ccc(C#N)cc2)C[C@@H]1c1ccc(Cl)cc1 (racemic)
reported: 0.0678 µM

### Prompt // Ki lookup, key: CN(C(=O)Oc1ccc(F)cc1)[C@@]1(C)CN(C(=O)C2CCN(c3ccc(Cl)cn3)CC2)C[C@@H]1c1ccc(Cl)cc1 (racemic)
### Response 0.01 µM

### Prompt What do you get for CN(C(=O)Oc1ccc(F)cc1)[C@@]1(C)CN(C(=O)c2ccc(C#N)nc2)C[C@@H]1c1ccc(Cl)cc1 (racemic) ?
### Response 0.0774 µM

### Prompt What do you get for CN(C(=O)Oc1ccc(F)cc1)[C@@H]1CN(C(=O)c2ccc(N3CCCCC3=O)cc2)C[C@@]1(C)c1ccc(Cl)cc1 (racemic) ?
### Response 0.997 µM

###

- assay system: UniProtKB P29371
- assay summary: [3H]SR142801 competition binding assay
pKi: −log10 of the molar value.
Label label 1 for high-side pKi (at or above 8) and label 0 for low-side pKi (below it).

compound: CN(C(=O)Oc1ccc(F)cc1)[C@@]1(C)CN(C(=O)C2CCN(c3ccc(C#N)cn3)CC2)C[C@@H]1c1ccc(Cl)cc1 (racemic)
class name: label 1

### Prompt Does COc1ccc(N2CCC(C(=O)N3C[C@@H](N(C)C(=O)Oc4ccc(F)cc4)[C@](C)(c4ccc(Cl)cc4)C3)CC2)nn1 (racemic) have a reported pKi of at least 8?
### Response label 0

### Prompt What do you get for CN(C(=O)Oc1ccc(F)cc1)[C@@]1(C)CN(C(=O)C2CCN(C3CCCCC3)CC2)C[C@@H]1c1ccc(Cl)cc1 (racemic) ?
### Response label 0

### Prompt What do you get for CN(C(=O)Oc1ccc(F)cc1)[C@@]1(C)CN(C(=O)c2ccc(-c3ccc(F)cc3)cc2)C[C@@H]1c1ccc(Cl)cc1 (racemic) ?
### Response label 0

### Prompt What do you get for CN(C(=O)Oc1ccc(F)cc1)[C@@H]1CN(C(=O)C2CCN(C(=O)C3(C)CC3)CC2)C[C@@]1(C)c1ccc(Cl)cc1 (racemic) ?
### Response label 0

###

- assay system: human NK3 receptor (Homo sapiens (Human), UniProt P29371)
- Sequence (P29371 whole entry): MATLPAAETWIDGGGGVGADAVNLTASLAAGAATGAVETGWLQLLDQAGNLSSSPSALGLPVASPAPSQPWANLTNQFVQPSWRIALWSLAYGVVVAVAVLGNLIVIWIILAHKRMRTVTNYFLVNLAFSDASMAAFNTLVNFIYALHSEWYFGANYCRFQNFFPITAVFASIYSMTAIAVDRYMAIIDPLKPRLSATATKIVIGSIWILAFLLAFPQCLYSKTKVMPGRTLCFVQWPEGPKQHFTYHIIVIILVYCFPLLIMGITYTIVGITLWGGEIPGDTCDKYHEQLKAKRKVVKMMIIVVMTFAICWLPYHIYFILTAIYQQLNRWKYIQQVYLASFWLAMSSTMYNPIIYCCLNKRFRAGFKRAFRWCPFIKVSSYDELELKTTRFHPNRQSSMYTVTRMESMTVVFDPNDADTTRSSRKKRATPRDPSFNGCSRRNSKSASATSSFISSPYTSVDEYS
- assay summary: [3H]SR142801 competition binding assay
- condition set: membranes from HEK293 cells transiently expressing recombinant human NK3 receptor; [3H]SR142801; Ki from IC50 by Cheng-Prussoff; read-out: Ki (uM) hNK3
measured property: Ki
Show the value, then the unit it is measured in.

Examples with answers:
compound: CN(C(=O)Oc1ccc(F)cc1)[C@@]1(C)CN(C(=O)C2CCN(c3ccc(C#N)cc3)CC2)C[C@@H]1c1ccc(Cl)cc1 (racemic)
Ki: 0.0038 µM

compound: CN(C(=O)Oc1ccc(F)cc1)[C@@H]1CN(C(=O)C2CCN(c3ccc(C(F)(F)F)cn3)CC2)C[C@@]1(C)c1ccc(Cl)cc1 (racemic)
Ki: 0.02 µM

compound: CN(C(=O)Oc1ccc(F)cc1)[C@@]1(C)CN(C(=O)c2ccc(N3CCCCC3=O)cc2)C[C@@H]1c1ccc(Cl)cc1 (racemic)
Ki: 0.276 µM

Next compound, please.
### Prompt Write down the reported Ki of CN(C(=O)Oc1ccc(F)cc1)[C@@H]1CN(C(=O)c2ccc(C#N)cc2)C[C@@]1(C)c1ccc(Cl)cc1 (racemic) , test system: human NK3 receptor (Homo sapiens (Human), UniProt P29371).
### Response 0.629 µM
